As shown below, each of these binders has a reported % max activation value.
Molecular target: human MC3R (human, UniProt P41968 1-323)
Sequence (P41968 whole entry): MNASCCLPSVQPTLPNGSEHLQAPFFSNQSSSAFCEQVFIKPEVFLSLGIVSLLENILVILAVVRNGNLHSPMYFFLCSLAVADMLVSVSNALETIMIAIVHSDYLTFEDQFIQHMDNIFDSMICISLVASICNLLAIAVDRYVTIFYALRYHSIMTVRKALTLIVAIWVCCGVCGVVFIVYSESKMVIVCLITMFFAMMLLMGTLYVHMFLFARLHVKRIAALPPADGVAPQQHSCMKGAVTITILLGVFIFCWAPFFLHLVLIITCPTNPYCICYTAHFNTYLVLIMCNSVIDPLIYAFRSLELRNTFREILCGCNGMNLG
Test: cell-based or functional assay
Positions of bridges follow the written chain, without caps; N, C: chain ends. Non-standard residues stand in square brackets, D forms with d. hCit = NC(=O)NCCCC[C@H](N)C(=O)O; 3Pal = N[C@@H](Cc1cccnc1)C(=O)O; NMeA = CN[C@@H](C)C(=O)O; Nle = CCCC[C@H](N)C(=O)O; Aib = CC(C)(N)C(=O)O
Field: numeric (%). Do not append units.

Consider the reported % max activation for these binders:
-- ask Need % max activation of Ac-C[Aib]R[dF]RWC-NH2 (disulfide 1-7; SMILES CC(=O)N[C@H]1CSSC[C@@H](C(N)=O)NC(=O)[C@H](Cc2c[nH]c3ccccc23)NC(=O)[C@H](CCCNC(=N)N)NC(=O)[C@@H](Cc2ccccc2)NC(=O)[C@H](CCCNC(=N)N)NC(=O)C(C)(C)NC1=O) [CTX-1632] , thanks.
-- reply 77

-- ask Can you handle {CH2CO}-[dA]H[dF]RFC-NH2 (thioether N-6; SMILES C[C@H]1NC(=O)CSC[C@@H](C(N)=O)NC(=O)[C@H](Cc2ccccc2)NC(=O)[C@H](CCCNC(=N)N)NC(=O)[C@@H](Cc2ccccc2)NC(=O)[C@H](Cc2c[nH]cn2)NC1=O) [CTX-1656] next?
-- reply 86

-- ask Can you handle Ac-R[Nle]C[3Pal][dF]RWC-NH2 (disulfide 3-8; SMILES CCCC[C@H](NC(=O)[C@H](CCCNC(=N)N)NC(C)=O)C(=O)N[C@H]1CSSC[C@@H](C(N)=O)NC(=O)[C@H](Cc2c[nH]c3ccccc23)NC(=O)[C@H](CCCNC(=N)N)NC(=O)[C@@H](Cc2ccccc2)NC(=O)[C@H](Cc2cccnc2)NC1=O) [CTX-1620] next?
-- reply 39

-- ask Can you handle Ac-RCAR[dF]R[dW]C-NH2 (disulfide 2-8) [CTX-1268] next?
-- reply 44

-- ask Can you handle Ac-R[Nle]C[hCit][dF]RWC-NH2 (disulfide 3-8; SMILES CCCC[C@H](NC(=O)[C@H](CCCNC(=N)N)NC(C)=O)C(=O)N[C@H]1CSSC[C@@H](C(N)=O)NC(=O)[C@H](Cc2c[nH]c3ccccc23)NC(=O)[C@H](CCCNC(=N)N)NC(=O)[C@@H](Cc2ccccc2)NC(=O)[C@H](CCCCNC(N)=O)NC1=O) [CTX-1618] next?
-- reply 33

Continuing:
-- ask Need % max activation of Ac-RC[NMeA]R[dF]R[dW]C-NH2 (disulfide 2-8; SMILES CC(=O)N[C@@H](CCCNC(=N)N)C(=O)N[C@H]1CSSC[C@@H](C(N)=O)NC(=O)[C@@H](Cc2c[nH]c3ccccc23)NC(=O)[C@H](CCCNC(=N)N)NC(=O)[C@@H](Cc2ccccc2)NC(=O)[C@H](CCCNC(=N)N)NC(=O)[C@H](C)N(C)C1=O) [CTX-1269] , thanks.
-- reply 39

-- ask Can you handle Ac-RC[dA]R[dF]RWC-NH2 (disulfide 2-8; SMILES CC(=O)N[C@@H](CCCNC(=N)N)C(=O)N[C@H]1CSSC[C@@H](C(N)=O)NC(=O)[C@H](Cc2c[nH]c3ccccc23)NC(=O)[C@H](CCCNC(=N)N)NC(=O)[C@@H](Cc2ccccc2)NC(=O)[C@H](CCCNC(=N)N)NC(=O)[C@@H](C)NC1=O) [CTX-1211] next?
-- reply 91

-- ask Can you handle Ac-R[Nle]CR[dF]RFC-NH2 (disulfide 3-8; SMILES CCCC[C@H](NC(=O)[C@H](CCCNC(=N)N)NC(C)=O)C(=O)N[C@H]1CSSC[C@@H](C(N)=O)NC(=O)[C@H](Cc2ccccc2)NC(=O)[C@H](CCCNC(=N)N)NC(=O)[C@@H](Cc2ccccc2)NC(=O)[C@H](CCCNC(=N)N)NC1=O) [CTX-1622] next?
-- reply 100

-- ask Can you handle {CH2CO}-[Aib]H[dF]RFC-NH2 (thioether N-6; SMILES CC1(C)NC(=O)CSC[C@@H](C(N)=O)NC(=O)[C@H](Cc2ccccc2)NC(=O)[C@H](CCCNC(=N)N)NC(=O)[C@@H](Cc2ccccc2)NC(=O)[C@H](Cc2c[nH]cn2)NC1=O) [CTX-1650] next?
-- reply 125

-- ask Can you handle Ac-RC[dA]R[dF]R[dW]C-NH2 (disulfide 2-8; SMILES CC(=O)N[C@@H](CCCNC(=N)N)C(=O)N[C@H]1CSSC[C@@H](C(N)=O)NC(=O)[C@@H](Cc2c[nH]c3ccccc23)NC(=O)[C@H](CCCNC(=N)N)NC(=O)[C@@H](Cc2ccccc2)NC(=O)[C@H](CCCNC(=N)N)NC(=O)[C@@H](C)NC1=O) [CTX-1263] next?
-- reply 69

-- ask Can you handle Ac-C[dA]R[dF]RWC-NH2 (disulfide 1-7; SMILES CC(=O)N[C@H]1CSSC[C@@H](C(N)=O)NC(=O)[C@H](Cc2c[nH]c3ccccc23)NC(=O)[C@H](CCCNC(=N)N)NC(=O)[C@@H](Cc2ccccc2)NC(=O)[C@H](CCCNC(=N)N)NC(=O)[C@@H](C)NC1=O) [CTX-1627] next?
-- reply 98
